meta.source: patent US20220017636A1

- target_or_system: T1, CNDP2 peptide complexed with HLA-A*02:01 on T2 cells (human)
- T1 construct: whole, on cells; also called CNPD2
- protocol: flow cytometry, peptide-loaded T2 cells;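 also: binding of single-chain Fv antibody constructs, raised in XenoMouse, to peptide-pulsed T2 cells measured by flow cytometry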
Field: Signal/background. Provide a value for each of the binders that follow.
Answers are plain numbers.

# annotated cases, reported Signal/background shown
# binder, test_readout, measured_result
records = [
    ("18182-E5 (scFv, scFv in bacterial lysate, detected with anti-Flag M2) scFv: EVQLLESGGGLVQPGGSLRLSCAASGFTFSSYAMSWVRQAPGKGLEWVSTISGSGGGTYYADSVKGRFTISRDNSKNTLYLQMNSLRAEDTAVYYCATGKGVHLGFDYWGQGTLVTVSSGGGGSGGGGSGGGGSELVLTQPPSVSVAPGQTARITCGGNNIGSKSVHWHQQKPGQAPVLVVYDDNDRPSGIPERFSGSNSGNTATLTISRVEAGDEADYYCQVWDYSSDHVVFGGGTKLTVL", "Signal/background", 0.8),
    ("18181-G10 (scFv, scFv in bacterial lysate, detected with anti-Flag M2) scFv: EVQLLESGPGLVKPSQTLSLTCTVSGDSISSNPYYWSWIRQLPGKGLEWIGYISYSGSTFYNPSLKSRVTISVDTSKNQFSLNLTSVTAADTAVYYCARDRLWFGVLNYYYGMDVWGLGTTVTVSSGGGGSGGGGSGGGGSELVMTQSPLSLPVTPGEPASISCRSSQSLLHSTGYNYVDWYLQKPGQSPQLLIYLGSNRASGVPDRFSGSGSGTDFTLKISRVEAEDVGFYYCMQALQTPRTFGQGTKVEIK", "Signal/background", 1.1),
    ("18179-B12 (scFv, scFv in bacterial lysate, detected with anti-Flag M2) scFv: EVQLLESGGGLVQPGGSLRLSCAASGFTFSNAWMSWVRQAPGKGLEWVGRIKGNTYGGTTDYAAPVKGRFTISRDDSKNTLFLQMNSLKTEDTAVYYCTTPSNSGSYYNYFSVMDVWGQGTTVTVSSGGGGSGGGGSGGGGSELVMTQSPSSLSASVGDRVTITCRTSQSISSYLNWFQQKPGKAPKLLIFAASSLQSGVPSRFSGSGSGTDFTLTISSLQPEDFATYYCQQTYSMPFTFGPGTKVEIK", "Signal/background", 1),
]

# next binder below
# Signal/background of 18182-G6 (scFv, scFv in bacterial lysate, detected with anti-Flag M2) scFv: EVQLLESGGGLVQPGGSLRLSCAASGFTFSSYAMSWVRQAPGKGLEWVSAISGSGGGTYYADSVKGRFTISRDNSKNTLYLQMNSLRAEDTAAYYCVTGKGVHLGFDYWGQGTLVTVSSGGGGSGGGGSGGGGSELVLTQPPSVSVAPGQTARITCGGNNIGSKSVHWHQQKPGQSPVLVIYDDNDRPSGIPERFSGFNSGNTATLTISRVEAGDEADYYCQVWDSSSDHVVFGGGTKLTVL = 1
